# System: T-47D breast
# EXPERIMENT_SUMMARY: NCI-60 one-dose screen, 48 h (100 = growth as untreated, 0 = no growth, -100 = all killed)
# CONDITION_DETAILS: 10 µM unless noted
About 83,000 compounds went through this panel and 20% of them were active in at least one assay; those are over-represented in the sample as a whole.
Consider the following compounds and their measured growth readings.

COMPOUND | growth (%)
COC[C@H](C)n1c(C2CCOCC2)nc2cnc3cc(-c4c(C)noc4C)c(OC)cc3c21 | 37.9
O=c1nc2oc3ccc4ccccc4c3cc-2s1 | 12.6
OCC(O)c1nc2ccc3[nH]ncc3c2c2c1CCCC2 (stereo not given) | 14
O=C1/C(=C/c2ccc(Cl)cc2)SC(=S)N1CCc1ccc(O)cc1 | 54.2
N#Cc1nnn(-c2ccc(S(N)(=O)=O)cc2)c1NCC(=O)c1ccccc1 | 95.4
COc1cc(/C=C/C(=O)c2ccc(O)c(CN3CCN(c4cc5c(cc4F)c(=O)c(C(=O)O)cn5C4CC4)CC3)c2)cc(OC)c1OC | 50.4
COc1ccc2cc(-c3nn(-c4ccc(C(=O)O)cc4)cc3CO)ccc2c1 | 98.5
COc1cc2nc(N3CCCC3)nc(Nc3ccccc3)c2cc1OC | -49.1
O=C(/C=C/c1cc(CN2CCOCC2)c(O)c2ncccc12)c1cc(CN2CCOCC2)c(O)c2ncccc12 | 7.07
Cc1cc(N2CCCCCC2)nc(NC2CCCC(Nc3ccnc4cc(Cl)ccc34)C2)n1 (stereo not given) | -50.3

* * *

# Test system: NCI-H23 lung
# EXPERIMENT_SUMMARY: NCI-60 one-dose screen, 48 h
# CONDITION_DETAILS: 10 µM unless noted
About 83,000 compounds went through this panel and 20% of them were active in at least one assay; those are over-represented in the sample as a whole. Activity calls are given as the source filed them. The calls were made as follows: active = growth percent below 10; inactive = the rest.
Outcome codes: active, inactive

COMPOUND | SUBJECT_OF_TEST | CATEGORY
COc1ccc(-c2cc(NC(=O)Nc3ccc4ncsc4c3)no2)cc1 | NCI-H23 lung | inactive
CCN1CCN(c2nc(NCCNc3ccnc4cc(Cl)ccc34)c3ccccc3n2)CC1 | NCI-H23 lung | inactive
COc1ccc(O)c(N=Nc2nccs2)c1 | NCI-H23 lung | inactive
COc1ccc(C2Nc3c(c(C(C)(C)C)nn3-c3ccccc3)C(=O)CS2)cc1 (stereo unspecified) | NCI-H23 lung | inactive
O=C(N=Nc1c(O)[nH]c2ccccc12)c1cc(-c2ccccc2)on1 | NCI-H23 lung | inactive
O=C1/C(=C/c2cn(-c3ccccc3)nc2-c2ccccc2)SC(=S)N1CCc1ccccc1 | NCI-H23 lung | inactive
N#Cc1c(N)n(CCNC(=O)c2ccccc2)c2nc3ccccc3nc12 | NCI-H23 lung | inactive
O=C(C(=O)c1ccc2c(c1)OCO2)c1ccc2c(c1)OCO2 | NCI-H23 lung | inactive
O=C1Nc2cc(-c3ccc(O)cc3)ccc2/C1=C/c1ccc[nH]1 | NCI-H23 lung | active
COc1ccccc1NS(=O)(=O)c1ccc2oc(SC(C)C)nc2c1 | NCI-H23 lung | inactive
CSc1nc(-c2cccc(NC(=O)CCl)c2)c(C#N)c(=O)n1C | NCI-H23 lung | inactive
CCn1c(Cc2ccccc2Nc2c(Cl)cccc2Cl)nnc1SCC(=O)NN1C(=O)/C(=C/c2cc(OC)c(O)c(OC)c2)SC1=S | NCI-H23 lung | inactive
COc1ccc2nc(NC(=O)CSc3nnc4n3S(=O)(=O)c3ccccc3N4c3ccccc3)sc2c1 | NCI-H23 lung | inactive
COc1cccc(-c2nc3sccn3c2-c2ccnc(NCCCNS(=O)(=O)c3cccc(F)c3)c2)c1 | NCI-H23 lung | inactive
COc1ccc(C(=O)COc2ccc(/C=C3\COc4ccc(OC)cc4C3=O)cc2)cc1 | NCI-H23 lung | inactive
Cc1cc(N2CCOCC2)nc(N[C@@H]2CCC[C@H](Nc3ccnc4cc(Cl)ccc34)C2)n1 | NCI-H23 lung | inactive
COc1cccc(Nc2nc(SC)nc(-c3cccc([N+](=O)[O-])c3)c2C#N)c1 | NCI-H23 lung | inactive
NS(=O)(=O)c1ccc(CN=C2NC(=O)S/C2=C\c2ccc(Br)cc2)cc1 | NCI-H23 lung | inactive
CCc1nc(N)nc(N)c1C#CC(C)c1ccc(-c2ccncc2)cc1Cl (stereo unspecified) | NCI-H23 lung | inactive
Cc1ccc2c(C(C[N+](=O)[O-])c3ccccc3)c(-c3ccccc3)[nH]c2c1 (stereo unspecified) | NCI-H23 lung | inactive
Cc1ccc(OC(=O)c2ccc(Cl)cc2)cc1 | NCI-H23 lung | inactive

* * *

# Test system: NCI-H460 lung
# EXPERIMENT_SUMMARY: NCI-60 one-dose screen, 48 h (100 = growth as untreated, 0 = no growth, -100 = all killed)
# CONDITION_DETAILS: 10 µM unless noted
Compounds without any hit were thinned out: in the full panel of roughly 83,000, 20% have a hit.

MOLECULE | growth [%]
COc1ccc(-c2nnc(SCC(=O)c3ccc(Cl)cc3)o2)cc1 | 110
CC(C)CSc1nc(N)nc2c1ncn2C1OC(CO)C(O)C1O (stereo not given) | 104
COc1cccc(-c2nc3sccn3c2-c2ccnc(NCCCNS(=O)(=O)c3c(Cl)cccc3Cl)c2)c1 | 67.4
O=[N+]([O-])c1ccc(Nc2nc(NCCN3CCOCC3)ncc2[N+](=O)[O-])cc1 | 94.4
FC(F)(F)c1[nH]ncc1-c1nc2ccc3n[nH]c(C#Cc4cccnc4)c3c2c2c1CCCC2 | 19.1

* * *

# System: MOLT-4 leukemia
# EXPERIMENT_SUMMARY: NCI-60 one-dose screen, 48 h
# CONDITION_DETAILS: 10 µM unless noted
# Procedure: Growth inhibition of the MOLT-4 human tumor cell line is measured as a screen for anti-cancer activity. Cells are grown in 96 well plates and exposed to the test compound for 48 hours. Compounds are tested at a single concentration, which is 10^-5 M for most compounds. The reported endpoint is percent growth (GI% or GIPRCNT), where numbers from 0 - 100% represent growth inhibition, and numbers from -100% - 0 represent cell death. For example, a value of 40 represents 60% growth inhibition. […]
About 83,000 compounds went through this panel and 20% of them were active in at least one assay; those are over-represented in the sample as a whole. Activity calls are given as the source filed them. How the source made its calls: active means growth percent below 10; inactive means the rest.
Outcome codes: yes for active, no for inactive

COMPOUND | CATEGORY
O=C(COc1cccc(/C=C2\COc3ccc(Cl)cc3C2=O)c1)c1ccc(Cl)cc1 | no
CN1C(=O)C2(SCC(C(=O)NCc3ccccc3)N2C(=O)C2CCCCC2)c2ccccc21 (centres undefined) | no
COCCNc1ccc2c3c(cccc13)C(=O)N(CCN(C)C)C2=O | yes
COc1cc(-c2nn(-c3ccc(C(=O)O)cc3)cc2C(=O)O)ccc1O | no
Cc1ccc2c(c1)C(=O)/C(=C/c1cccc(OCC(=O)c3ccc(Cl)cc3)c1)CS2 | no
COc1ccc(-c2cc(C(=O)N=Nc3c(O)[nH]c4ccc(Br)cc34)no2)cc1 | no
CCOc1ccc(-n2nc(C(=O)Nc3ccccc3)nc2-c2cc(OC)c(OC)c(OC)c2)cc1 | no
CC(=O)NCC1c2c(n(C)c3c(Cl)c(Cl)ccc23)C(=O)NC1(C)C (centres undefined) | no
COc1cccc(-c2nc3sccn3c2-c2ccnc(NCCCNS(=O)(=O)c3cccc(F)c3)c2)c1 | yes
Nc1ccn(-c2ccc(Br)cc2)c(=O)n1 | no
CCCSc1ccc2nc(NC(=O)OC)[nH]c2c1 | no
CSc1ccc(-c2ccccc(=O)c2O)cc1 | yes
C=CC(=O)Nc1cccc(-c2nc(SC)nc(Nc3cccc(OC)c3)c2C#N)c1 | no
CCOC(=O)c1c(CN2CCN(C)CC2)nc2ccc(Cl)cc2c1-c1ccccc1 | no
COc1cc(C=Nc2oc(-c3ccccc3)c(-c3ccccc3)c2C#N)cc(CN2CCCCC2)c1O | no
Cc1cc(N2CCOCC2)nc(NCc2cc(Nc3ccnc4cc(Cl)ccc34)ccc2F)n1 | yes
O=C1C=CC(=O)N1c1ccc2c(c1)Cc1cc(F)ccc1-2 | no
CC(=O)c1cc(C(=O)c2ccc3c(c2)Sc2ccccc2N3)n2ccccc12 | no
Cn1cc(C(=O)c2nc(-c3c[nH]c4ccccc34)no2)c2ccccc21 | no
CN1CCN=C1c1ccc(NC(=O)c2ccc(C(=O)Nc3ccc(C4=NCCN4C)cc3)cc2)cc1 | no
COc1cc(C(=O)Oc2ccccc2OC(=O)c2cc(OC)c(OC)c(OC)c2)cc(OC)c1OC | no
COc1ccc(-n2nc(C)c3c(Nc4ccc(NC(=O)Nc5cccc(C(F)(F)F)c5)cc4)ncnc32)cc1 | yes
COc1ccc2cc(-c3nn(-c4ccc(C(=O)O)cc4)cc3CO)ccc2c1 | no
CC1(C)CC[C@]2(C(=O)Nc3ccccn3)CC[C@]3(C)C(=CC[C@@H]4[C@@]5(C)C/C(=C/c6cccnc6)C(=O)C(C)(C)[C@@H]5CC[C@]43C)[C@H]2C1 | no
O=C1c2cccc3cccc(c23)C(=O)N1CCCCCN1CCN(CCCCCOc2ccc(-c3nc4ccc(N5CCOCC5)cc4[nH]3)cc2)CC1 | yes
CC(C)C[C@@H](NC(=O)[C@@H](Cc1ccccc1)NC(=O)c1cnccn1)B1Oc2ccc(C[C@H](NC(=O)[C@H](Cc3ccc4c(c3)OB([C@@H](CC(C)C)NC(=O)[C@@H](Cc3ccccc3)NC(=O)c3cnccn3)O4)NC(=O)[C@@H](N)CC3CCC4OB([C@@H](CC(C)C)NC(=O)[C@@H](CC5CCCCC5)NC(=O)C5CNCCN5)OC4C3)C(=O)NCCCC[C@@H]3NC(=O)[C@@H](Cc4ccccc4)NC(=O)[C@H](CC(=O)O)NC(=O)CNC(=O)[C@H](CCCNC(=N)N)NC3=O)cc2O1 (some centres undefined) | yes
COC(=O)c1ccc(Cn2cnc3c(N)ncnc32)cc1 | no
O=C(Cc1ccccc1Nc1c(Cl)cccc1Cl)NN1C(=O)/C(=C/c2ccc(Br)cc2)SC1=S | no
Cc1cc(N[C@@H]2CCC[C@H](Nc3ccnc4cc(Cl)ccc34)C2)nc(N2CCCCCC2)n1 | yes
Nc1ccc(S(=O)(=O)O)c2ccc(N=Nc3ccc(N=Nc4ccc(S(=O)(=O)O)cc4)c4ccccc34)c(O)c12 | no
COc1ccc(/C=C\c2cc(OC)c(OC)c(OC)c2)cc1OC(=O)c1cccc(Cn2cc(CCOC(=O)[C@H](N)Cc3cn(C)c4ccccc34)nn2)c1 | yes
CCCOc1cc2ccccc2cc1C(=O)Nc1nc(N)c2c(ccc3nccc32)[nH]1 | yes
C(=C\c1nccc2c1[nH]c1ccccc12)/c1ccccc1 | no
COc1ccc(-c2nc3ccc(-c4nc5ccc(N6CCN(c7ccc(F)cc7)CC6)cc5[nH]4)cc3[nH]2)cc1OC | no
